Cited source for all entries: the supplement of paper PMC11732987

- target-system: USP38 (UniProt Q8NB14)
- Sequence (whole entry): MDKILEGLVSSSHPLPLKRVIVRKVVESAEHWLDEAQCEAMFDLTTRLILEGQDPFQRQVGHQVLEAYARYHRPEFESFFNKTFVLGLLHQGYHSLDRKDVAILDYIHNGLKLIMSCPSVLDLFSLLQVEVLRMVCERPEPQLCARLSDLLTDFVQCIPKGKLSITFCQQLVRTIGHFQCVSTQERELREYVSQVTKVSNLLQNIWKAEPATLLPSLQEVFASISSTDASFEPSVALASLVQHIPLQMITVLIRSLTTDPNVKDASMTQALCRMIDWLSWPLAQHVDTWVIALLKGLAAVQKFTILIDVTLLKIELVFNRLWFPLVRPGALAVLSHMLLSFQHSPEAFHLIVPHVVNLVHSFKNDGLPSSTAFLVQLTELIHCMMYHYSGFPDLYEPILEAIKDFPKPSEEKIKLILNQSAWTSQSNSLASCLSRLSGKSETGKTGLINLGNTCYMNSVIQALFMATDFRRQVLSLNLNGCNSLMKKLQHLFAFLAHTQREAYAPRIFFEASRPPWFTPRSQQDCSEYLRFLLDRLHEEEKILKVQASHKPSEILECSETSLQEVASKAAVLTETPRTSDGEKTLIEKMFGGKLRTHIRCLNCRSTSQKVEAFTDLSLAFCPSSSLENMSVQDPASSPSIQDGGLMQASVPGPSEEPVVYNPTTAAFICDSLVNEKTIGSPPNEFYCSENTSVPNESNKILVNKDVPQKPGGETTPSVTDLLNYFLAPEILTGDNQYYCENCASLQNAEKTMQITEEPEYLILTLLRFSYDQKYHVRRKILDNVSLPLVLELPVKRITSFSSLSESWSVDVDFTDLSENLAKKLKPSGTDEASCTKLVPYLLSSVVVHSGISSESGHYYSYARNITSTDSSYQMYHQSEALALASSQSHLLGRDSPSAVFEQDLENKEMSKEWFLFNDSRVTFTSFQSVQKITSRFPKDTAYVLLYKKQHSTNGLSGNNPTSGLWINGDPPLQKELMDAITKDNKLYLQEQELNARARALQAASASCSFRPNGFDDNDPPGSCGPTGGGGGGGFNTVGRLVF
- assay-remarks: log2 ratio of Biotin-Ahx-Ub-VS probe labelling (compound/DMSO); higher = less target engagement, active = hit call of the paper (q ≤ 0.05, log2 ratio ≤ -1)
- assay-setup: compound concentration: 50uM; treatment time: 3 h
Use Satisfied when the recorded log2 ratio of Biotin-Ahx-Ub-VS probe labelling is no lower than 0.01; use Not satisfied when it is lower.

>>> label("O=C(CCl)N1Cc2sccc2C(O)C1 (configuration not stated)")
"Satisfied"
>>> label("O=C(CCl)N[C@H]1CCCc2ccccc21")
"Satisfied"
>>> label("COc1cccc(CN(CCCc2ccccc2)C(=O)CCl)c1")
"Not satisfied"
>>> label("O=C(CCl)N1CCc2cc(Cl)c(Cl)cc2C1")
"Satisfied"
>>> label("CN(Cc1ccccc1)C(=O)CCl")
"Not satisfied"
>>> label("O=C(CCl)NC1CCCc2ccccc21 (configuration not stated)")
"Satisfied"
>>> label("O=C(CCl)NC1CCOc2ccc(Cl)cc21 (configuration not stated)")
"Satisfied"
>>> label("O=C(CCl)NC1CCSc2ccccc21 (configuration not stated)")
"Satisfied"
>>> label("CCCC1c2cc(OC)c(OC)cc2CCN1C(=O)CCl (configuration not stated)")
"Not satisfied"
>>> label("O=C(CCl)N1CCc2nc(-c3ccccc3)ncc2C1")
"Satisfied"
>>> label("Cl.Cl.O=C(CCl)N1CCc2nc(N3CCN(c4ccc(F)cc4)CC3)ncc2C1")
"Satisfied"
>>> label("Cc1ccccc1COc1cccc(CN(C)C(=O)CCl)c1")
"Not satisfied"
